Each recorded value in this set is attributed to patent US11559538B2.

system: IFNγ; assay: Cytokine assay: IFNγ release from PHA-L stimulated human PBMCs; format: cell-based; settings: Homo sapiens, PBMC
# label = y if IC50 < 6 nM else n

Worked examples, 5 compounds total:
- compound: "CCOc1c(OC)ccc(-c2cccc(C3COB(O)C3)n2)c1F (stereo not drawn)"
  class: "y"
- compound: "COc1cnc(-c2cccc(C3COB(O)C3)c2)cc1OC (stereo not drawn)"
  class: "n"
- compound: "CCOc1cc(-c2cccc(C3COB(O)C3)n2)ccc1SC (single isomer, unassigned; enantiomer 1) [Example 204]"
  class: "n"
- compound: "CCCOc1c(OC)ccc(-c2cccc(C3COB(O)C3)n2)c1C#N (stereo not drawn) [Example 86]"
  class: "y"
- compound: "CCOc1ccc(-c2cccc(C3COB(O)C3)c2)cc1OC (stereo not drawn)"
  class: "n"

Ask: Identify whether the compound CCCOc1cc(-c2cncc([C@@H]3COB(O)C3)c2)ccc1OC records IC50 below 6 nM.
Reply: y

Ask: Identify whether the compound CCOc1c(OC)cc(F)c(-c2cncc(C3COB(O)C3)c2)c1F (stereo not drawn) [Example 163] records IC50 below 6 nM.
Reply: n

Ask: Identify whether the compound COc1cnc(-c2cccc(C3COB(O)C3)c2)nc1OC1CCCC1 (stereo not drawn) records IC50 below 6 nM.
Reply: y
